Experiment: yeast display, Sf9 membrane polyspecificity reagent, FACS + sequencing; frameworks hold sequencing errors

query_sequence | polyreactivity (PSR sort gate)
QVQLVESGGGLVQAGGSLRLSCAASGSIFDSNAMGWYRQAPGKERELVAAITGSGTSTYDADSVKGRFTISRDNAKNTVYLQMNSLKPEDTAVYYCAAAPEYLTDHDYWGQGTQVTVSS | low polyreactivity
QVQLVESGGGLVQAGGSLRLSCAASGFIFGYNAMGWYRQAPGKERELVAALDSGDSTYYADSVKGRFTLSRDNAKNTVYLQMNSLKPEDTAVYYCATDVTFVYDFGYFQFDYWGQGTQVTVSS | low polyreactivity

====

Experiment: yeast display, Sf9 membrane polyspecificity reagent, FACS + sequencing; frameworks hold sequencing errors
endpoint_label: polyreactivity (PSR sort gate)

Illustrative cases are given below, each with its answer.
query_sequence | polyreactivity (PSR sort gate)
QVQLVESGGGLVQAGGSLRLSCAASGRTFVRYAMGWYRQAPGKEREFVAAISWSTGSTYFADSVKGRFTISRDNAKNTVYLQMNSLKPEDTAVYYCAADGYTTYWLLYEYDYWGQGTQVTVSS | low polyreactivity
QVQLVESGGGLVQAGGRLRLSCAASGFTFYWNAMGWYRQAPGKERELVAAINWRGTSTYYADSVKGRFTISRDNAKNTVYLQMNSLKPEDTAVDYCNTYVYVEYDWGQGTQVTVSS | high polyreactivity
QVQLVESAGGLVQAGGSLRLSCAPSGRIFPVNSMGSYRQAPGKERELVATMSSGDITNYADSVKGRFTISRDNATITVYLQMNCLKPEDNAVYYCARDSKRLARYYYWGQGTQVTVSS | low polyreactivity
QVQLVESGGGLVQAGGSLRLSCAASGSIFRGNAMGWYRQAPGKEMELVAAINKSGGSTYYADSVKGRFTISRDNAKNTVYLQMNSLKPEDTAVYYCAAVYKRLQPYGYWGQGTQVTVSS | high polyreactivity

Let us examine a further case.
May I ask what polyreactivity (PSR sort gate) has been recorded for QVQLVESGGGLVQAVGSLRLSCAASGRTFQSYTMGWYRQAPGKEREFVAAFRDSGGSTYYADSVKGRFTISRDNAKNTVFLQMNSLKPEDTAVYYCAAYRPRKYDYWGQGTQVTVSS ?
high polyreactivity

All figures here come from the nanobody polyreactivity screen of Harvey et al. (2022).
